Please consider the recorded IC50 for WRN protein (AA N517-P1238, ICE) (Homo sapiens, UniProt Q14191) in what follows.

Ask: What value of IC50 has been reported for the following molecule? Cc1ncnc(C(=O)N2CCN(c3c4n(c5nc(C6=CCOCC6)nn5c3=O)[C@@H](C(=O)Nc3ccc(C(F)(F)F)cc3Cl)CCC4)CC2)c1O [Compound 1-B]
Reply: < 20 nM

Ask: What about O=C(Nc1ccc(C(F)(F)F)cc1Cl)C1CCCc2c(N3CCN(C(=O)c4ncccc4O)CC3)c(=O)n3nc(C4=CCOCC4)nc3n21 (single isomer, unassigned) [Compound 2-B] ?
Reply: < 20 nM

* * *

# Assay Explanation: Beagle dog pharmacokinetic assay
# Assay type: in vivo, Beagle dogs
# Protocol Conditions: male, po; Beagle dog plasma, i.g. (3 mg/kg)
Readout Type: AUC(0-t) (ng·h/mL)
Just the number in ng·h/mL, nothing appended.

Ask: What value of AUC(0-t) has been reported for the following molecule? CCc1c(N2CCN(C(=O)c3ncnc(C)c3O)CC2)c(=O)n2nc(C3=CCOCC3)nc2n1CC(=O)Nc1ccc(C(F)(F)F)cc1Cl [HRO761, reference compound]
Reply: 10800

* * *

# System: WRN protein (AA N517-P1238, ICE, Cat. S2212T-H56HZ) (Homo sapiens)
# Construct: WRN protein (AA N517-P1238, ICE, Cat. S2212T-H56HZ)
# Sequence (Q14191 517-1238, stated change not applied): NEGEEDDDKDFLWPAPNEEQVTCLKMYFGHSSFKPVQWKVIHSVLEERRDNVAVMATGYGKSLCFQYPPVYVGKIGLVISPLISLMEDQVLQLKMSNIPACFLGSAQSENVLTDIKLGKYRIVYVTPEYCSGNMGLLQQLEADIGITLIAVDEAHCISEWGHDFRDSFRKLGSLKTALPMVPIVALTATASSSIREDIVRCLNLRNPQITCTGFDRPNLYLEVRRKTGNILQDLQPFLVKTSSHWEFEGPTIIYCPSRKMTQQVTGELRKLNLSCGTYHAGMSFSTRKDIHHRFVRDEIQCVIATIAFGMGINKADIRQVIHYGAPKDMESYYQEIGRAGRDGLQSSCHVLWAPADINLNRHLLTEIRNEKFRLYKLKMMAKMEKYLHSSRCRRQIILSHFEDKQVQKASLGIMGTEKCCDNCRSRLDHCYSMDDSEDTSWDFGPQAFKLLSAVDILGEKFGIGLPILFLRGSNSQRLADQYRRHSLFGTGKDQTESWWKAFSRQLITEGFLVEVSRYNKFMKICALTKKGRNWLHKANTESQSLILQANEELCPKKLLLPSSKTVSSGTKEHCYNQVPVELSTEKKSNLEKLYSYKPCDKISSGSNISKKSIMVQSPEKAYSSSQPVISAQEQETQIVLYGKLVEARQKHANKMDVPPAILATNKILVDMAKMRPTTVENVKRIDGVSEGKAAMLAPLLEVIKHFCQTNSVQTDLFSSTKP
# Assay Explanation: Assay for WRN helicase activity (FORKF dsDNA unwinding, fluorescence)
# Protocol Conditions: inhibition of WRN helicase activity; 10 nM WRN, 10 nM FORKF, 2 mM ATP
Readout Type: IC50

Worked set:
{"Molecule": "Cc1ncnc(C(=O)N2CCN(c3c4n(c5nc(C6=CCOCC6)nn5c3=O)[C@@H](C(=O)Nc3ccc(C(F)(F)F)cc3Cl)CCC4)CC2)c1O", "System": "WRN protein (AA N517-P1238, ICE, Cat. S2212T-H56HZ) (Homo sapiens)", "IC50": "< 20 nM"}
{"Molecule": "Cc1ncnc(C(=O)N2CCN(c3c4n(c5nc(C6=CCOCC6)nn5c3=O)C(C(=O)Nc3ccc(C(F)(F)F)nc3Cl)CCC4)CC2)c1O (single isomer, unassigned)", "System": "WRN protein (AA N517-P1238, ICE, Cat. S2212T-H56HZ) (Homo sapiens)", "IC50": "< 20 nM"}
{"Molecule": "Cc1cc(C(F)(F)F)ccc1NC(=O)C1CCCc2c(N3CCN(C(=O)c4ncnc(C)c4O)CC3)c(=O)n3nc(C4=CCOCC4)nc3n21 (single isomer, unassigned)", "System": "WRN protein (AA N517-P1238, ICE, Cat. S2212T-H56HZ) (Homo sapiens)", "IC50": "< 20 nM"}
{"Molecule": "Cc1ncnc(C(=O)N2CCN(c3c4n(c5nc(C6=CCOCC6)nn5c3=O)C(C(=O)Nc3ccc(C(F)(F)F)cc3Cl)CCC4)CC2)c1O (racemic)", "System": "WRN protein (AA N517-P1238, ICE, Cat. S2212T-H56HZ) (Homo sapiens)", "IC50": "20 to 100 nM"}

Ask: What value of IC50 has been reported for the following molecule? Cc1ncnc(C(=O)N2CCN(c3c4n(c5nc(C6=CCOCC6)nn5c3=O)C(C(=O)Nc3ccc(C(F)(F)F)c5c3CCC5)CCC4)CC2)c1O (racemic)
Reply: < 20 nM
